Cited source: patent US20160272977

Target: DNMT1 full-length (Homo sapiens, UniProt P26358 SEQ:1-1616)
Sequence (P26358 whole entry): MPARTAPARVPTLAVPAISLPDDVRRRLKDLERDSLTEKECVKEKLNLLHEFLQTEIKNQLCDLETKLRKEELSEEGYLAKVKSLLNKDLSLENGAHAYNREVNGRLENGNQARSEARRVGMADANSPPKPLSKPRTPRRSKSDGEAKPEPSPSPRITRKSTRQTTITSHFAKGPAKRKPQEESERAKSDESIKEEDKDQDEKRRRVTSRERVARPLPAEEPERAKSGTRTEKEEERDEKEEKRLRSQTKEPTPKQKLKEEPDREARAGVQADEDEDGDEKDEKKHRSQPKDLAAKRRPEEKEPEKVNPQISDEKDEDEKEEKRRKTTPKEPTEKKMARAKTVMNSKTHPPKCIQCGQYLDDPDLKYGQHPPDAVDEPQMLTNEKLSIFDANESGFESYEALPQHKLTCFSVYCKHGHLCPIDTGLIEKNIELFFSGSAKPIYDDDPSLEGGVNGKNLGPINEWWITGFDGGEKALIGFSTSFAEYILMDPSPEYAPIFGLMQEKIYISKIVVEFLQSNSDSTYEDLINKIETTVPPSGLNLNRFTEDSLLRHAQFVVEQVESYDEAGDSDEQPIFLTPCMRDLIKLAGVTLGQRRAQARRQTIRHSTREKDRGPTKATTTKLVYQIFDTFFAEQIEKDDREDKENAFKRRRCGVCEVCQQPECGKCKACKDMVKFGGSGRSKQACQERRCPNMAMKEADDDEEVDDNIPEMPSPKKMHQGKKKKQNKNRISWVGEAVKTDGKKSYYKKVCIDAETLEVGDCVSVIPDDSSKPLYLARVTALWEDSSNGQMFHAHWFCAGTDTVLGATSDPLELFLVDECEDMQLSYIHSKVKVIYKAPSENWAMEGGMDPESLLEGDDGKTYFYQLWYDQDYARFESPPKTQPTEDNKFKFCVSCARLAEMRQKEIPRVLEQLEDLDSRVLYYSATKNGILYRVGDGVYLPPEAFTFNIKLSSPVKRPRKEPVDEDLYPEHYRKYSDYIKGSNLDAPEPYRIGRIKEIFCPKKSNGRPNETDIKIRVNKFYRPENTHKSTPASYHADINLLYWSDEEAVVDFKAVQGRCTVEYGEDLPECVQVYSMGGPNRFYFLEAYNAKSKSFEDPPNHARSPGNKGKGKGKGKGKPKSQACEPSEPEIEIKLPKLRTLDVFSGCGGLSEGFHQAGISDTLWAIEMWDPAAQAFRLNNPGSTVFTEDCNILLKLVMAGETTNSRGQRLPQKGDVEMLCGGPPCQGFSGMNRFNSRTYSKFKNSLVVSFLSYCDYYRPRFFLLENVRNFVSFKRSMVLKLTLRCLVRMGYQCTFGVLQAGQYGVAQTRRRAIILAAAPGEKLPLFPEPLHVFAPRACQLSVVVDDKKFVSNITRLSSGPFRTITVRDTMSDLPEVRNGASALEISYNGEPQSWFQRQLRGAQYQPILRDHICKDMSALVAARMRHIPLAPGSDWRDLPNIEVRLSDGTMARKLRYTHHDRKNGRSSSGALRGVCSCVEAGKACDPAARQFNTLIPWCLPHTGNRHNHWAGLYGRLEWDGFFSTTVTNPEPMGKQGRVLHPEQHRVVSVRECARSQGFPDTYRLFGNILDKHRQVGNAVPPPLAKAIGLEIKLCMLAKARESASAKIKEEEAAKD
Experiment: inhibition; competitive vs hemimethylated DNA, 37 C
Conditions: tags: baculovirus Sf9
Readout: pKi
Please report pKi as the negative decimal logarithm of the molar concentration, giving only the number.

Query string: In one line, give reported pKi of the entry UUAAUGCUAAUCGUGAUAGGGGU (ssRNA) [miR-155-5p] .
Result string: 7.55
